target: TrkA (Homo sapiens (Human), UniProt P04629)
Sequence (P04629 33-796): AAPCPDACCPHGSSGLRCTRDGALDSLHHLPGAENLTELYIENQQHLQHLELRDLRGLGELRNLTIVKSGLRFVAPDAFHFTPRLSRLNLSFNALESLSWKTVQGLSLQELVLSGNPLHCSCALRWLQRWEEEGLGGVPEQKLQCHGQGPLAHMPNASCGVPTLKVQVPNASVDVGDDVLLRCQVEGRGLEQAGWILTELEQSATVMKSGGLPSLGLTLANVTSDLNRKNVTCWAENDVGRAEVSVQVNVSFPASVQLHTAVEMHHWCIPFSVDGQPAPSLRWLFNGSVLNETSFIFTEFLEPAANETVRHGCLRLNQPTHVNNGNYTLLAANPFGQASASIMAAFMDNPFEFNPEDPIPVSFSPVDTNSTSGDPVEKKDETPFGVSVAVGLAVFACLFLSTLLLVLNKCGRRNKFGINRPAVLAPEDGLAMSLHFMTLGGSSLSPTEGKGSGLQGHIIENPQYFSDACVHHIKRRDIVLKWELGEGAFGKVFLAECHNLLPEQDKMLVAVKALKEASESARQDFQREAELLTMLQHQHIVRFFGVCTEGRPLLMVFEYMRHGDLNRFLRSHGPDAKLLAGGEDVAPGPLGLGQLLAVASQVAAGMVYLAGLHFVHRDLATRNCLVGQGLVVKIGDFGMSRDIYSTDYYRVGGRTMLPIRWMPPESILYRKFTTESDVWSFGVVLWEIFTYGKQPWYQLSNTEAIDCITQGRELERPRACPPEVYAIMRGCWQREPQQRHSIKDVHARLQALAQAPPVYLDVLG
Value Kind: IC50 (nM)

See these solved cases before continuing.
INSERT INTO measurements (mol_smiles, value_kind, reported) VALUES
  ('N#Cc1ccc(NC(=O)c2coc3c2C(=O)NCC3)cc1', 'IC50', 430),
  ('Cc1nc2cc(NC(=O)c3coc4c3C(=O)N(C)CC4)ccc2[nH]1', 'IC50', 236),
  ('CCOc1nc(N2CCN(C(C)=O)CC2)ccc1NC(=O)c1coc2c1C(=O)N(CCOCc1ccccc1)CC2', 'IC50', 69.5),
  ('CN1CCc2occ(C(=O)Nc3ccc(Cl)cn3)c2C1=O', 'IC50', 2490),
  ('CCOc1nc(N2CCN(C(=O)OC(C)(C)C)CC2)ccc1NC(=O)c1coc2c1C(=O)NCC2', 'IC50', 18.2),
  ('COc1cc(N2CCN(S(=O)(=O)N(C)C)CC2)ccc1NC(=O)c1coc2c1C(=O)NCC2', 'IC50', 65.8);

A: COc1cc(N2CCN(C(=O)CC(C)(C)C)CC2)ccc1NC(=O)c1coc2c1C(=O)NCC2
B: CS(=O)(=O)NCCn1ncc2cc(NC(=O)c3coc4c3C(=O)NCC4)ccc21
Q. // which entry reports the smaller IC50, A or B ? Selection: enter the item's label.
A. A
(A: 44.7 nM, B: 105 nM)

----------
target: UniProtKB P04629
pIC50: −log10 of the molar value.
Value Kind: pIC50

1: COc1nc(N2CCN(C(C)=O)CC2)ccc1NC(=O)c1coc2c1C(=O)C(C)(C)OC2 [Example 171]
2: Cc1cc2[nH]ncc2cc1NC(=O)c1coc2c1C(=O)NCC2 [Example 46]
3: CCOc1nc(N2CCN(C(C)=O)CC2)ccc1NC(=O)c1coc2c1C(=O)N[C@@H]([C@@H](C)O)C2 [Example 115]
4: CC(O)Cn1cc2cc(NC(=O)c3coc4c3C(=O)NCC4)ccc2n1 (stereo not shown) [Example 55]
Q. // ranking: key=pIC50, reverse=True # list labels per requested ordering
A. 1, 3, 4, 2

----------
Below are molecules with their IC50 as measured on TrkA (Homo sapiens (Human)).
Value Kind: IC50 (nM)

INSERT INTO results (molecule, target_desc, reported) VALUES
  ('COCCOc1nc(N2CCN(C=O)CC2)ccc1NC(=O)c1coc2c1C(=O)NC(C)(C)C2 [Example 182]', 'TrkA (Homo sapiens (Human))', 17.8),
  ('CCOc1nc(CC(=O)OC)ccc1NC(=O)c1coc2c1C(=O)NCC2 [Example 108]', 'TrkA (Homo sapiens (Human))', 226),
  ('CCOc1nc(N2CCNCC2)ccc1NC(=O)c1coc2c1C(=O)NC(C)(C)C2 [Example 127]', 'TrkA (Homo sapiens (Human))', 13.2),
  ('CCOc1nc(N2CCN(C(C)=O)CC2)ccc1NC(=O)c1coc2c1C(=O)N(CCO)C1(CCC1)C2 [Example 116]', 'TrkA (Homo sapiens (Human))', 3.1);

1: CN1CCc2occ(C(=O)Nc3ccc4[nH]ncc4c3)c2C1=O [Example 23]
2: CN1CCc2occ(C(=O)Nc3cnc4ccccc4c3)c2C1=O [Example 62]
3: CCOc1nc(N2CCN(C(C)=O)CC2)ccc1NC(=O)c1coc2c1C(=O)N(CCOCCO)CC2 [Example 91]
4: Cn1ncc2cc(NC(=O)c3coc4c3C(=O)CC(C)(C)C4)ccc21 [Example 146]
Q. Order the 4 molecules from highest to lowest IC50. List labels; respect the requested ordering.
A. 2, 1, 4, 3

----------
Recorded below: pIC50, system TrkA (Homo sapiens (Human), UniProt P04629).
pIC50: −log10 of the molar value.
Value Kind: pIC50

Examples with answers:
INSERT INTO assay_data (compound, value_kind, reported) VALUES
  ('CCOc1nc(N2CCN(C(=NC#N)NC)CC2)ccc1NC(=O)c1coc2c1C(=O)NCC2 [Example 93]', 'pIC50', 7.79),
  ('CN1CCc2occ(C(=O)Nc3ccc(O)cc3)c2C1=O [Example 59]', 'pIC50', 6.01),
  ('CCOc1nc(N2CCN(C(C)=O)CC2)ccc1NC(=O)c1coc2c1C(=O)N([C@H](C)COC(C)=O)CC2 [Example 98]', 'pIC50', 8.82),
  ('Cn1cc2cc(NC(=O)c3coc4c3C(=O)CC(C)(C)C4)ccc2n1 [Example 147]', 'pIC50', 7.79),
  ('COCC1(C)CC(=O)c2c(C(=O)Nc3ccc(N4CCNCC4)cc3OC)coc2C1 (centres unmarked) [Example 166]', 'pIC50', 6.98),
  ('CC(C)Oc1nc(N2CC[C@H](N(C)C)C2)ccc1NC(=O)c1coc2c1C(=O)NC(C)(C)C2 [Example 136]', 'pIC50', 7.99);

a: CCOc1nc(N2CCN(C(C)=O)CC2)ccc1NC(=O)c1coc2c1C(=O)N(C[C@H](C)OC(C)=O)CC2 [Example 96]
b: CCOc1nc(CCO)ccc1NC(=O)c1coc2c1C(=O)NCC2 [Example 109]
Q. Just tell me: smaller pIC50 value, a or b ? Return value: the label identifying the chosen record.
A. b
(b: 6.65, a: 8.17)

----------
The following compounds have recorded IC50 on TrkA (Homo sapiens (Human), UniProt P04629).
Value Kind: IC50 (nM)

As a guide, the following entries are already answered.
INSERT INTO results (compound, reported) VALUES
  ('CCOc1nc(C2CCN(C(C)=O)CC2)ccc1NC(=O)c1coc2c1C(=O)NC(C)(C)C2 [Example 184]', 3.5),
  ('CN1CCc2occ(C(=O)Nc3cccc(C#N)c3)c2C1=O [Example 71]', 3670),
  ('CC(C)Oc1nc(N(CCO)CCO)ccc1NC(=O)c1coc2c1C(=O)NC(C)(C)C2 [Example 140]', 10.5);

a: CC(C)Oc1nc(N2CCC[C@H](CO)C2)ccc1NC(=O)c1coc2c1C(=O)NC(C)(C)C2 [Example 137]
b: Cc1n[nH]c2ccc(NC(=O)c3coc4c3C(=O)NCC4)cc12 [Example 45]
c: COc1nc(N2CCN(C)CC2)ccc1NC(=O)c1coc2c1C(=O)NCCC2 [Example 7]
d: O=C(Nc1ccc2c(cnn2CCO)c1)c1coc2c1C(=O)NCC2 [Example 53]
e: COc1nc(N2CCN(C(C)=O)CC2)ccc1NC(=O)c1coc2c1C(=O)CC1(CCOCC1)C2 [Example 110]
Q. Would you mind ranking these compounds by ascending IC50? When ranking, write the labels in the order the request describes.
A. a, e, d, c, b

----------
target: TrkA (Homo sapiens (Human))
Value Kind: IC50 (µM)

Worked examples follow.
INSERT INTO assay_data (compound, value_kind, unit_of_measurement, reported) VALUES
  ('CCOc1nc(N2CCN(C(C)=O)CC2)ccc1NC(=O)c1coc2c1C(=O)N([C@H](C)CO)CC2 [Example 99]', 'IC50', 'µM', 0.0033),
  ('CCOc1nc(N2CCN(C(C)=O)CC2)ccc1NC(=O)c1coc2c1C(=O)NC1(CCCCC1)C2 [Example 112]', 'IC50', 'µM', 0.0273),
  ('CC1(C)CC(=O)c2c(C(=O)Nc3ccc(N4CCN(S(C)(=O)=O)CC4)cn3)coc2C1 [Example 155]', 'IC50', 'µM', 0.0548),
  ('CCOc1nc(N2CCN(C(C)=O)CC2)ccc1NC(=O)c1coc2c1C(=O)N(CCOCCO)C(C)(C)C2 [Example 176]', 'IC50', 'µM', 0.0021),
  ('CCOc1nc(N2CCN(C(C)=O)CC2)ccc1NC(=O)c1coc2c1C(=O)NCC2 [Example 19]', 'IC50', 'µM', 0.0163),
  ('CN1CCc2occ(C(=O)Nc3nc4ccccc4s3)c2C1=O [Example 75]', 'IC50', 'µM', 2.05);

a: COc1cc(N2CCN(C(=O)N3CCCC3)CC2)ccc1NC(=O)c1coc2c1C(=O)NCC2 [Example 80]
b: CS(=O)(=O)NCCn1cc2cc(NC(=O)c3coc4c3C(=O)NCC4)ccc2n1 [Example 51]
Q. Exercise: compare a and b ; which one has the greater IC50? Lab log: write the label of the selected item as the result.
A. a
(a: 0.0677 µM, b: 0.0189 µM)

----------
molecular target: UniProt P04629; assay: TrkA kinase HTRF enzyme inhibition assay; format: biochemical; details: TrkA pre-incubated with 200 μM ATP
pIC50: −log10 of the molar value.
Value Kind: pIC50

Answered cases to consult:
INSERT INTO measurements (compound, reported) VALUES
  ('COCCOc1ccc(NC(=O)c2coc3c2C(=O)NC(C)(C)C3)c(OCCOC)n1', 7.22),
  ('CCOc1nc(N2CCN(C(C)=O)CC2)ccc1NC(=O)c1coc2c1C(=O)N(C[C@H](C)O)CC2', 8.32),
  ('Cc1cc(NC(=O)c2coc3c2C(=O)NCC3)no1', 5.76),
  ('O=C(Nc1ccc(Cl)cn1)c1coc2c1C(=O)NCC2', 6.04),
  ('CCOc1nc(N2CCN(C(C)=O)CC2)ccc1NC(=O)c1coc2c1C(=O)NC1(CC1)C2', 8.28);

a: CC(=O)N1CCN(c2ccc(NC(=O)c3coc4c3C(=O)NC(C)(C)C4)c(OC3C[S+]([O-])C3)n2)CC1 (centres unmarked)
b: CC(=O)N1CCN(c2ccc(NC(=O)c3coc4c3C(=O)NC(C)(C)C4)c(OC3CCOCC3)n2)CC1
c: O=C(Nc1ccc2[nH]cnc2c1)c1coc2c1C(=O)NCC2
Q. Sort these compounds on pIC50 so the largest reading comes first. Would you mind listing the labels in the order asked for?
A. a, b, c
(a: 8.32, b: 7.96, c: 7.00)
